Catalogue of sequences with associated PBM binding z-score
test system: THRa:RXRa (NR concentration 90 nM, RXRa partner concentration 90 nM); assay: PBM binding z-score (relative to random genomic background probes); higher = stronger binding; sequences stand for … in GC…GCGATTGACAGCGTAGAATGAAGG
Just the number, please.

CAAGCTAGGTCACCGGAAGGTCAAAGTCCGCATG = 4.5
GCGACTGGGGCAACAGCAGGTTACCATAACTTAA = 1.67

// recorded PBM binding z-score for "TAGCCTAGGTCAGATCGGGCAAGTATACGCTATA" : 2.98

// recorded PBM binding z-score for "CTCCAAAGGTCGTGCTCAGGTGAGTATACCAAAC" : 4.15

// recorded PBM binding z-score for "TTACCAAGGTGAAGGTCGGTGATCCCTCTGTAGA" : 2.21

// recorded PBM binding z-score for "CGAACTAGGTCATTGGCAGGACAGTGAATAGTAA" : 3.09

// recorded PBM binding z-score for "CGTCCAAGGCCAAAGGTCAGTGAAGAGATGACGG" : 3.24

// recorded PBM binding z-score for "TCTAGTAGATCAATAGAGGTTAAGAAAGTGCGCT" : 2.09

// recorded PBM binding z-score for "ATCGAAAGGTAGTGAGGTGAGTATACAGAAAGGC" : 1.5

// recorded PBM binding z-score for "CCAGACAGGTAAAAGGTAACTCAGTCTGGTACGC" : 0.372

// recorded PBM binding z-score for "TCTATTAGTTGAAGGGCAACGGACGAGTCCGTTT" : 0.343

// recorded PBM binding z-score for "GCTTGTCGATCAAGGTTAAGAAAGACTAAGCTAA" : 1.68

// recorded PBM binding z-score for "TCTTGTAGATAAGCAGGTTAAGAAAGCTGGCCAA" : 0.129

// recorded PBM binding z-score for "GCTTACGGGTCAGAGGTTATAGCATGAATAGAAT" : 2.66

// recorded PBM binding z-score for "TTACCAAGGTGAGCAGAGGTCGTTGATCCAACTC" : 3.54

---

tested on: PPARg:RXRa (NR concentration 180 nM, RXRa partner concentration 90 nM); assay: PBM binding z-score (relative to random genomic background probes); higher = stronger binding; sequences stand for … in GC…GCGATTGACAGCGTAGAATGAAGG
Catalogue of sequences with associated PBM binding z-score
Just the number, please.

Known results for sequences:
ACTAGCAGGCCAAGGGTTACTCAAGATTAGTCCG = 4.88
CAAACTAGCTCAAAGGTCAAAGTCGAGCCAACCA = 9.32
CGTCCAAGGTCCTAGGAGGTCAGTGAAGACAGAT = 0.157

Below: the item to evaluate.
For the sequence "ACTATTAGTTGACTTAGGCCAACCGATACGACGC" , the measured PBM binding z-score on PPARg:RXRa (NR concentration 180 nM, RXRa partner concentration 90 nM) was 1.05

---

Catalogue of sequences with associated PBM binding z-score
test system: PPARg:RXRa 30nM:10nM, anti-RXR (NR concentration 30 nM, RXRa partner concentration 10 nM); experiment: PBM binding z-score (relative to random genomic background probes); higher = stronger binding; sequences stand for … in GC…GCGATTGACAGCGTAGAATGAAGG
Just the number, please.

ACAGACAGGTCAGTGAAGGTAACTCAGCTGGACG = -0.166
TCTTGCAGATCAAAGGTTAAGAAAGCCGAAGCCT = 5.71

Below: the item to evaluate.
For the sequence "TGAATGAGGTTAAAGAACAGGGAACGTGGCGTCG" , the measured PBM binding z-score on PPARg:RXRa 30nM:10nM, anti-RXR (NR concentration 30 nM, RXRa partner concentration 10 nM) was 1.51

---

test system: THRa:RXRa (NR concentration 90 nM, RXRa partner concentration 90 nM); assay: PBM binding z-score (relative to random genomic background probes); higher = stronger binding; sequences stand for … in GC…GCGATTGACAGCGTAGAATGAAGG
Catalogue of sequences with associated PBM binding z-score
Just the number, please.

Known results for sequences:
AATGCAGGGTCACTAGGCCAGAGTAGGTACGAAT = 3.27
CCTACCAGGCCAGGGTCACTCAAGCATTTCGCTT = 2.98
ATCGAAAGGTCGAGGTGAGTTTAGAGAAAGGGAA = 3.01

// recorded PBM binding z-score for "CCAGACAGGTGAAAAGGTAACTCAGCCTCGATTA" : 0.971

// recorded PBM binding z-score for "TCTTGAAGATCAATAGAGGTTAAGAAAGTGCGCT" : 2.53

// recorded PBM binding z-score for "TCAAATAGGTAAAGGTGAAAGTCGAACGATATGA" : 1.32

---

test system: LXRa:RXRa (NR concentration 270 nM, RXRa partner concentration 90 nM); experiment: PBM binding z-score (relative to random genomic background probes); higher = stronger binding; sequences stand for … in GC…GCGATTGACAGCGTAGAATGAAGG
If the reported PBM binding z-score equals or exceeds 1, assign Condition met. If not, assign Condition not met.

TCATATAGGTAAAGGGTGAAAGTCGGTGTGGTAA = Condition met
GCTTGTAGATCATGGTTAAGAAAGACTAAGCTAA = Condition not met
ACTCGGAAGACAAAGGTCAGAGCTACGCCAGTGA = Condition met
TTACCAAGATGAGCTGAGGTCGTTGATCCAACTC = Condition not met
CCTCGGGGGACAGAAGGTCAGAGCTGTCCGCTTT = Condition met

For this sequence, is measured PBM binding z-score 1 or higher? "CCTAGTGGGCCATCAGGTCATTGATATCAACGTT"
Condition met

For this sequence, is measured PBM binding z-score 1 or higher? "CGTCAAAGTTGAAGGTAACGTAACAGAAAGCAGC"
Condition not met

For this sequence, is measured PBM binding z-score 1 or higher? "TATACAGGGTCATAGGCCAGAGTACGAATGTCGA"
Condition met

For this sequence, is measured PBM binding z-score 1 or higher? "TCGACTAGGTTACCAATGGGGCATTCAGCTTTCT"
Condition met

For this sequence, is measured PBM binding z-score 1 or higher? "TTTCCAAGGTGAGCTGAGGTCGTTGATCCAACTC"
Condition met

For this sequence, is measured PBM binding z-score 1 or higher? "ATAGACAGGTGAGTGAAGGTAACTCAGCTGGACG"
Condition not met

For this sequence, is measured PBM binding z-score 1 or higher? "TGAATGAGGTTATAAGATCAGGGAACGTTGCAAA"
Condition met

For this sequence, is measured PBM binding z-score 1 or higher? "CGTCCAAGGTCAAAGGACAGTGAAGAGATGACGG"
Condition met

---

test system: PXR homodimer (NR concentration 270 nM); assay: PBM binding z-score (relative to random genomic background probes); higher = stronger binding; sequences stand for … in GC…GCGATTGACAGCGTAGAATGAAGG
Please use the following PBM binding z-score ranges when assigning a class: Low = under 0.1, Mid = from 0.1 up to 0.8, High = 0.8 and over

Check out these entries, answers already filled in.
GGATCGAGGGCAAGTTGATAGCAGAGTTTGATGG = High
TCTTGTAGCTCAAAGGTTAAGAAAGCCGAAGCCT = Low
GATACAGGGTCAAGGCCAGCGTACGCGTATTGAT = Mid
CGTCAAAGTTCAACTAAGGTAACGCAAAGCACGC = High
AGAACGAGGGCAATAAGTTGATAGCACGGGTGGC = High
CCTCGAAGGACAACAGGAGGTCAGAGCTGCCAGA = Mid
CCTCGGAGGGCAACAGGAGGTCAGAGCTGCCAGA = Low
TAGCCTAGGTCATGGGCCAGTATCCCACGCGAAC = Low
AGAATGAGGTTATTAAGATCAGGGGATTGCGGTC = Mid
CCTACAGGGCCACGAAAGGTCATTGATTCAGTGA = High

Please report the category associated with "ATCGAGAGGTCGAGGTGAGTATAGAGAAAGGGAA" , nothing else.
Low

Please report the category associated with "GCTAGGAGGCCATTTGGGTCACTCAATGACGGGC" , nothing else.
High

Please report the category associated with "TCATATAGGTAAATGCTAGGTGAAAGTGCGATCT" , nothing else.
Mid

---

Catalogue of sequences with associated PBM binding z-score
test system: PPARg:RXRa 90nM:30nM, anti-RXR (NR concentration 90 nM, RXRa partner concentration 30 nM); test: PBM binding z-score (relative to random genomic background probes); higher = stronger binding; sequences stand for … in GC…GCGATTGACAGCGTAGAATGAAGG
Just the number, please.

Known results for sequences:
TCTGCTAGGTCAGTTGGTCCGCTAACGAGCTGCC = 0.949
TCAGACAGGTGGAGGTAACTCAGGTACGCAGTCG = 2.3

Below: the item to evaluate.
For the sequence "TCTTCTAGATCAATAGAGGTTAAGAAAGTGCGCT" , the measured PBM binding z-score on PPARg:RXRa 90nM:30nM, anti-RXR (NR concentration 90 nM, RXRa partner concentration 30 nM) was 2.76
